B1: RHOBTB3 (parent)
chain: GGADIIVIKYNVNDKFSFHEVKDN

Variants of: B1
Assay: protein stability index of a GFP-peptide fusion (GPS, HEK-293T) (PSI 1-6); higher = more stable;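 note: lentivirally expressed fusions sorted by FACS into six bins by GFP to DsRed ratio, PSI derived from sequencing read proportions per bin multiplied by bin number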
Settings: c terminus: a fixed tail appended
Assign protein stability index to each entry below.

Here are 4 variants together with their reported answers.
N13L :: 2.87
I8C :: 2.22
D23T :: 4.21
V7H :: 2.28

Give protein stability index for all variants that follow.
1. H19P
2. K22W
3. F16D
4. A3K
5. I5M

1. 2.55
2. 2.75
3. 2.07
4. 2.65
5. 2.68

Give protein stability index for all variants that follow.
1. I5G
2. F18I
3. S17F
4. V21R
5. K15D
6. D4A
7. D23Q

1: 2.82; 2: 1.95; 3: 3.05; 4: 2.42; 5: 4.13; 6: 2.91; 7: 2.76

Give protein stability index for all variants that follow.
1. K22A
2. H19A
3. N24H
4. G2E
5. G2T

[2.89, 2.27, 2.14, 1.98, 2.38]

The values you see were collected from the supplement of paper PMC10567573.
